target: SARS-CoV-2 RBD (SARS-CoV-2); assay: sVNT, cPass kit with SARS-CoV-2 RBD-HRP; HEK293 supernatant
attribute_measured: sVNT SARS-CoV-2 (% I) (%)
# value in %; strip the unit string

Prompt line: Find the recorded sVNT SARS-CoV-2 (% I) belonging to Antibody 8 (SS6V8-D3) (antibody, V domains shown) VH: EVQLVESGGDLVQPGGSLRLSCSASGFTFSTYAMHWVRQAPGKGLDYVASIASDGGITTYADSVKGRFTISRDNSKNALYLQMSSLRVEDTAVYYCVKDSLTSVTTIFDCWGQGTLVTVSS VL: DIQMTQSPSSLSASVGDSVTITCRASQNINSYLHWYQQKPGKAPKLLIYTASSLQSGVPSRFSASGSGTHFTLTISSLQPEDFATYYCQQSYTDPYTFGQGSKVEIK and report it.
Response line: 33.1
